- System: KM-20L2
- assay overview: NCI tumour cell line growth inhibition, 48 h
The source made the active and inactive calls. No stated cut-off is given here; in the data, active = GI50 up to about 1.1 µM and inactive = higher.
experimental endpoint: GI50

In [3]: df
Out[3]:
                                   compound  experimental_endpoint            meas_value
0  CN(C(=O)C12C3C4C1C1C2C3C41I)C(C)(C)C (stereo not given)                   GI50  > 89.3 µM (inactive)
1   NC(=S)N/N=C/C(=C/Nc1ccccc1)[N+](=O)[O-]                   GI50   > 100 µM (inactive)
2  CC1CCCc2c(CC3CC(=O)NC(=O)C3)n[nH]c21 (stereo not given)                   GI50   > 100 µM (inactive)
3  COC(=O)C1=CC2C(=O)OC1CC2C#N (stereo not given)                   GI50   > 100 µM (inactive)
4  CC(=O)O[C@@]1(C)[C@@H](C)C(=O)O[C@@H]2CCN3CC=C(COC(=O)[C@]1(C)O)[C@H]23                   GI50   > 100 µM (inactive)
5  C/C(=N\N)C(CN1CCCCC1)C(c1ccccc1)c1c(O)c2ccccc2oc1=O (stereo not given)                   GI50   > 100 µM (inactive)
6  CC1=C(C(=O)Nc2ccccc2C)C(c2ccccc2)C(C(=O)Nc2ccccc2C)=C(C)N1                   GI50    42.2 µM (inactive)
7    O=C(/C=C/c1ccc(Cl)cc1)c1ccc(Cl)c(Cl)c1                   GI50    41.2 µM (inactive)
8  CC#CC#C/C=C1\C=CC2(OC=CC2OC(C)=O)O1 (stereo not given)                   GI50    3.51 µM (inactive)
9  O=c1c2ccccc2c(=O)c2c1c1[nH]c3ccccc3c1c1c(=O)c3ccccc3c(=O)c21                   GI50   > 100 µM (inactive)
